Each item that follows carries a reported pKb.
Test System: G-protein coupled receptor 68 (Homo sapiens)
Protocol Summary: Binding affinity to GPR68 expressed in human HEK293T cells assessed as cAMP production in presence of H+ proton by Split-luciferase based luminescence counter analysis
Type: cell-based
Run Parameters: filed as positive allosteric modulator
Form: value (number only, do not type unit).

INSERT INTO assay_data (molecular_string, reported_measurement) VALUES
  ('Nc1nc(NCc2ccccc2)nc(-c2ccc(F)c(F)c2)n1', 5.69);

*Q* Tell me its pKb given Nc1nc(NCc2cc[nH]n2)nc(-c2ccccc2CO)n1 as the entry.
*A* 5.17

*Q* Tell me its pKb given Nc1nc(NCc2ccccc2)nc(-c2ccc(F)c(F)c2CO)n1 as the entry.
*A* 3.84

*Q* Tell me its pKb given CC(=O)c1cccc(-c2nc(N)nc(Nc3ccc(C)cc3)n2)c1 as the entry.
*A* 6.31

###

Test System: Adenosine receptor A2a (Homo sapiens)
Sequence (P29274 whole entry): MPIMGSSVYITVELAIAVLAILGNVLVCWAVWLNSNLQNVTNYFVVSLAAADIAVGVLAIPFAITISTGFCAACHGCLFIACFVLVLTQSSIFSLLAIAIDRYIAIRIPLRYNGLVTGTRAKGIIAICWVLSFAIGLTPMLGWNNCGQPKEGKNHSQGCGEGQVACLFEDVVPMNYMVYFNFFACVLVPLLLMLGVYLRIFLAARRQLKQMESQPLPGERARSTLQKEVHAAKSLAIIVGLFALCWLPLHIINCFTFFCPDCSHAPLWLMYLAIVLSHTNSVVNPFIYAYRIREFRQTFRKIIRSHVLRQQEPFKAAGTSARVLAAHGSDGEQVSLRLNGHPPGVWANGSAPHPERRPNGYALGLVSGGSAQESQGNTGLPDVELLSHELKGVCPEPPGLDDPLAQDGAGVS
Protocol Summary: Antagonist activity against A2A adenosine receptor (unknown origin) transfected in human HEK293T cells assessed as inhibition constant […] by luminescence counter analysis
Property Name: pKi
To interpret pKi, take it as minus log10 of a concentration measured in moles per litre.

*Q* Tell me its pKi given Nc1nc(NCc2ccccc2)nc(-c2ccccc2CO)n1 as the entry.
*A* 6.66

###

Protocol Summary: Positive allosteric modulator activity at GPR68 R189M mutant expressed in human HEK293T cells assessed as cAMP production in presence of H+ proton by Split-luciferase based luminescence counter analysis (reference value: 6.71+/-0.03)
Type: cell-based
Run Parameters: HEK-293T
Property Name: EC50 (nM)
Please reply with the bare figure in nM and do not write the unit itself.

*Q* Tell me its EC50 given Nc1nc(NCc2ccccc2)nc(-c2ccccc2CO)n1 [Ogerin] as the entry.
*A* 191

###

Protocol Summary: Positive allosteric modulator activity at GPR68 H269F mutant transfected in human HEK293T cells assessed as proton-mediated calcium release at 10 uM incubated for 10 mins by Fluo-4 Direct calcium dye based FLIPR assay (reference value: 6.44 +/- 0.02)
Type: cell-based
Run Parameters: HEK-293T
Property Name: EC50 (µM)
Please reply with the bare figure in µM and do not write the unit itself.

INSERT INTO assay_data (compound, property_name, unit_annotation, reported_measurement) VALUES
  ('Nc1nc(NCc2ccccc2)nc(-c2ccccc2CO)n1 [Ogerin]', 'EC50', 'µM', 0.145),
  ('Nc1nc(NCc2ccccc2)nc(-c2cc(F)cc(F)c2)n1', 'EC50', 'µM', 0.324);

Now take the following compound into account.
*Q* Tell me its EC50 given Nc1nc(NCc2ccccc2)nc(-c2cccc(CO)c2)n1 [ZINC32547799] as the entry.
*A* 0.339

###

Protocol Summary: Positive allosteric modulator activity at GPR68 E160Q mutant transfected in human HEK293T cells assessed as proton-mediated calcium release at 10 uM incubated for 10 mins by Fluo-4 Direct calcium dye based FLIPR assay (reference value: 6.86 +/- 0.04)
Assay type: cell-based
Run Parameters: HEK-293T
Property Name: pEC50
To interpret pEC50, take it as minus log10 of a concentration measured in moles per litre.

INSERT INTO results (molecule, reported_measurement) VALUES
  ('Nc1nc(NCc2ccccc2)nc(-c2cc(F)cc(F)c2)n1', 6.99);

Now take the following molecule into account.
*Q* Tell me its pEC50 given Nc1nc(NCc2ccccc2)nc(-c2cccc(CO)c2)n1 [ZINC32547799] as the entry.
*A* 6.63

###

Test System: G-protein coupled receptor 68 (Homo sapiens)
Protocol Summary: Positive allosteric modulator activity at GPR68 expressed in human HEK293T cells assessed as cAMP production in presence of H+ proton by Split-luciferase based luminescence counter analysis (reference value: 26.4 to 43.8 %)
Assay type: functional, cell-based
Run Parameters: filed as positive allosteric modulator
Property Name: Emax (%)
Please reply with the bare figure in % and do not write the unit itself.

Recorded Emax, per entry:
INSERT INTO measurements (molecular_string, property_name, reported_measurement) VALUES
  ('Nc1nc(NCc2ccccc2)nc(-c2cccc(CO)c2)n1', 'Emax', 43.1),
  ('Nc1nc(NCc2ccccc2)nc(-c2ccc(F)c(F)c2)n1', 'Emax', 68.8),
  ('Nc1nc(NCc2ccccc2)nc(-c2cc(F)cc(F)c2)n1', 'Emax', 70.7),
  ('COc1cc([C@H]2NC(=O)c3[nH]nc(-c4ccco4)c32)ccc1O', 'Emax', 46.9),
  ('O=C1N[C@H](c2cccc([N+](=O)[O-])c2)c2c(-c3ccco3)n[nH]c21', 'Emax', 60.3);

*Q* Tell me its Emax given Nc1nc(NCc2ccccc2)nc(-c2ccccc2N)n1 as the entry.
*A* 50.2

*Q* Tell me its Emax given CC(=O)c1cccc(-c2nc(N)nc(Nc3ccc(C)cc3)n2)c1 as the entry.
*A* 67.3

*Q* Tell me its Emax given O=C1N[C@H](c2ccccc2[N+](=O)[O-])c2c(-c3ccccc3)n[nH]c21 as the entry.
*A* 50.8

###

Test System: C-X-C chemokine receptor type 4 (Homo sapiens)
Protocol Summary: Agonist activity against CXCR4 receptor (unknown origin) transfected in human HEK293T cells at 10 uM incubated for 15 mins in presence of CXCL12 by luminescence counter analysis
Type: functional, cell-based
The source made the active and inactive calls. No cut-off for these calls is given here.
Property Name: Activity

Recorded Activity, per entry:
INSERT INTO measurements (compound, property_name, reported_measurement) VALUES
  ('O=C1Nc2ccc(Cl)cc2C(c2ccccc2Cl)=NC1O (stereo unspecified)', 'Activity', 'inactive'),
  ('Nc1nc(NCc2ccccc2)nc(-c2ccccc2CO)n1', 'Activity', 'inactive'),
  ('Nc1nc(NCc2ccccc2)nc(-c2cccc(CO)c2)n1', 'Activity', 'inactive'),
  ('O=C1CN=C(c2ccccc2)c2cc(Cl)ccc2N1', 'Activity', 'inactive'),
  ('O=C1CN=C(c2ccccc2Cl)c2cc([N+](=O)[O-])ccc2N1', 'Activity', 'inactive');

*Q* Tell me its Activity given O=C1CN=C(c2ccccc2F)c2cc(Cl)ccc2N1 as the entry.
*A* inactive

###

Test System: G-protein coupled receptor 68 (Homo sapiens, UniProt Q15743)
Sequence (Q15743 whole entry): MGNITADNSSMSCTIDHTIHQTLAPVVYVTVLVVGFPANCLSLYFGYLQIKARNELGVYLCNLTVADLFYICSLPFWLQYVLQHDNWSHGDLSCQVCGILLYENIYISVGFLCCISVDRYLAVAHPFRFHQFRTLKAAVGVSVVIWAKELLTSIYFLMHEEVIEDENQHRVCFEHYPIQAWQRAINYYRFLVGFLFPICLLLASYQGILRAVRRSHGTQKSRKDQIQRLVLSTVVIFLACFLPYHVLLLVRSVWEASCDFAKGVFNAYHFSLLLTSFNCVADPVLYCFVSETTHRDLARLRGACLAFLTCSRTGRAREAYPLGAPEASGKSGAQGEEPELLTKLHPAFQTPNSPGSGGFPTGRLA
Protocol Summary: Binding affinity to GPR68 expressed in human HEK293T cells assessed as cAMP production in presence of H+ proton by Split-luciferase based luminescence counter analysis
Format: cell-based
Run Parameters: filed as positive allosteric modulator
Property Name: pKb
Form: value (number only, do not type unit).

Recorded pKb, per entry:
INSERT INTO measurements (compound, reported_measurement) VALUES
  ('COc1ccc(-c2nc(N)nc(NCc3ccccc3)n2)c(CO)c1', 4.43),
  ('Cc1ccc(-c2nc(N)nc(NCc3ccccc3)n2)c2cccnc12', 4.92),
  ('Nc1nc(NCc2ccccc2F)nc(-c2cc(F)c(F)cc2N)n1', 4.93),
  ('Nc1nc(NCc2ccccc2F)nc(-c2cccc(F)c2N)n1', 4.11),
  ('Nc1nc(NCc2cccc(F)c2)nc(-c2ccc(F)c(F)c2CO)n1', 4.01),
  ('O=C1Nc2ccc(Cl)cc2C(c2ccccc2Cl)=NC1O (stereo unspecified)', 5.92),
  ('OC1CCC(Nc2nc(-c3ccccc3)nc3[nH]ccc23)CC1 (stereo unspecified)', 6.2),
  ('Nc1nc(NCCCCc2ccccc2)nc(-c2ccccc2CO)n1', 5.82),
  ('O=C1N[C@H](c2ccccc2[N+](=O)[O-])c2c(-c3ccccc3)n[nH]c21', 5.48),
  ('Nc1nc(NCc2ccccc2)nc(-c2ccccc2N)n1', 5.22);

Now take the following compound into account.
*Q* Tell me its pKb given COc1cc([C@H]2NC(=O)c3[nH]nc(-c4ccco4)c32)ccc1O as the entry.
*A* 5.17

###

Test System: 5-hydroxytryptamine receptor 2B (Homo sapiens, UniProt P41595)
Sequence (P41595 whole entry): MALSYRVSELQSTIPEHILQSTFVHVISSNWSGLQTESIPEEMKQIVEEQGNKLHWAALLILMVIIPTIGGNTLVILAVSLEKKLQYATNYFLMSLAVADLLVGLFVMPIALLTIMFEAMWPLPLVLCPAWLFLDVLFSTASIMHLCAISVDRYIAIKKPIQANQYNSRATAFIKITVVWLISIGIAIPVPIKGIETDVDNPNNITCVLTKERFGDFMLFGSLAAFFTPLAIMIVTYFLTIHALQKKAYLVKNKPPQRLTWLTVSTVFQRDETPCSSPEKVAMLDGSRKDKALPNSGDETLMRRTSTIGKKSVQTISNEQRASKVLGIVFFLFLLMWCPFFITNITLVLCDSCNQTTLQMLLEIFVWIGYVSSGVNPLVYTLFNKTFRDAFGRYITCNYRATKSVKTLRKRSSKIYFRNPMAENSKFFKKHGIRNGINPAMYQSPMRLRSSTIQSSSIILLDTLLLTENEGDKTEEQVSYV
Protocol Summary: Antagonist activity against 5-HT2B […] receptor (unknown origin) transfected in human HEK293T cells assessed as inhibition constant incubated for 15 mins by luminescence counter analysis
Property Name: Ki

*Q* Tell me its Ki given Nc1nc(NCc2ccccc2)nc(-c2ccccc2CO)n1 as the entry.
*A* 736 nM

###

Test System: G-protein coupled receptor 68 (Homo sapiens, UniProt Q15743)
Protocol Summary: Positive allosteric modulator activity at GPR68 expressed in human HEK293T cells assessed as cAMP production in presence of H+ proton by Split-luciferase based luminescence counter analysis (reference value: 6.53 to 6.72)
Property Name: pEC50
To interpret pEC50, take it as minus log10 of a concentration measured in moles per litre.

Recorded pEC50, per entry:
INSERT INTO measurements (molecular_string, test_system, reported_measurement) VALUES
  ('O=C1N[C@H](c2cccc([N+](=O)[O-])c2)c2c(-c3ccco3)n[nH]c21', 'G-protein coupled receptor 68 (Homo sapiens, UniProt Q15743)', 6.97),
  ('Cc1ccc(-c2nc(N)nc(NCc3ccccc3)n2)c2cccnc12', 'G-protein coupled receptor 68 (Homo sapiens, UniProt Q15743)', 7.02),
  ('O=C1N[C@H](c2ccccc2[N+](=O)[O-])c2c(-c3ccccc3)n[nH]c21', 'G-protein coupled receptor 68 (Homo sapiens, UniProt Q15743)', 6.73),
  ('Nc1nc(NCc2ccccc2)nc(-c2cc(F)cc(F)c2)n1', 'G-protein coupled receptor 68 (Homo sapiens, UniProt Q15743)', 6.96);

Now take the following compound into account.
*Q* Tell me its pEC50 given CC(=O)c1cccc(-c2nc(N)nc(Nc3ccc(C)cc3)n2)c1 as the entry.
*A* 7.24
